Origin of values: PubChem BioAssay AID1159580

Experiment description: chemical genetic growth profiling, strain panel (AID 1159580);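 also: tested at 20 µM; growth read once vehicle control cultures reached saturation at 30 °C; lower values mean less growth of the strain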
Setup conditions: S. cerevisiae deletion strains, growth OD, locus YKL009W, strain mrt4, hits give low values
The campaign covered roughly 5,500 compounds. About 2,000 (36%) were called active. Another 18% or so got no clear call; they are omitted. This is one part of the list.
Binary call on normalized growth with cut-off 1: strictly below means rule met, and equality or higher means rule not met.

>  <Compound>
COc1ccc(C[C@H](N)C(=O)N[C@@H]2[C@@H](CO)OC(n3cnc4c(N(C)C)ncnc43)[C@@H]2O)cc1 (some centres not stated)

>  <Qualitative label>
rule not met

$$$$
>  <Compound>
CC[C@@H](C(=O)[C@@H](C)[C@@H](O)[C@H](C)[C@@H]1O[C@@H]([C@@H](CC)C(=O)O)CC[C@@H]1C)[C@H]1OC2(C=C[C@@H](O)[C@]3(CC[C@@](C)([C@H]4CC[C@](O)(CC)[C@H](C)O4)O3)O2)[C@H](C)C[C@@H]1C (some centres not stated)

>  <Qualitative label>
rule met

$$$$
>  <Compound>
O=C1CN(/N=C\c2ccc([N+](=O)[O-])o2)C(=O)N1

>  <Qualitative label>
rule met

$$$$
>  <Compound>
Cc1ccc(C(C)C)cc2c(C)ccc1-2

>  <Qualitative label>
rule not met

$$$$
>  <Compound>
COc1ccc2c(c1O)-c1c(OC)c(OC)cc3c1[C@H](C2)N(C)CC3

>  <Qualitative label>
rule not met

$$$$
>  <Compound>
CCC(CCC(C)C1CCC2C3CC=C4C[C@@H](OC(C)=O)CC[C@]4(C)C3CC[C@]12C)C(C)C (some centres not stated)

>  <Qualitative label>
rule not met

$$$$
>  <Compound>
O=C1N=C(O)CN1/N=C\c1ccc(-c2ccc([N+](=O)[O-])cc2)o1

>  <Qualitative label>
rule not met

$$$$
>  <Compound>
CC[C@@H](C(=O)O)[C@@H]1O[C@@H]([C@@H](C)[C@H](O)[C@H](C)C(=O)[C@H](CC)[C@H]2O[C@]3(C=C[C@@H](O)[C@]4(CC[C@@](C)(C5CC[C@](O)(CC)[C@H](C)O5)O4)O3)[C@H](C)C[C@@H]2C)[C@@H](C)C[C@H]1C (some centres not stated)

>  <Qualitative label>
rule met

$$$$
>  <Compound>
CC(COc1ccccc1)N(CCCl)Cc1ccccc1 (configuration not stated)

>  <Qualitative label>
rule not met

$$$$
>  <Compound>
C#C[C@]1(O)CCC2C3CCc4cc(O)ccc4C3CC[C@@]21C (some centres not stated)

>  <Qualitative label>
rule met

$$$$
>  <Compound>
CC1=CC(=O)CC(C)(C)C1(O)/C=C/C(C)=C\C(=O)O (configuration not stated)

>  <Qualitative label>
rule met

$$$$
>  <Compound>
COS(C)(=O)=O

>  <Qualitative label>
rule not met

$$$$
>  <Compound>
CC(=O)O[C@H]1C[C@@H](OC(C)=O)C(C)(C)C2C[C@@H](OC(C)=O)[C@]3(C)C(CC[C@@]4(C)[C@H](c5ccoc5)C(=O)[C@H]5O[C@]543)[C@]21C (some centres not stated)

>  <Qualitative label>
rule met

$$$$
>  <Compound>
CC(=O)O[C@H]1CC[C@@]2(C)C(=CCC3C2CC[C@]2(C)C(=O)CCC32)C1 (some centres not stated)

>  <Qualitative label>
rule met

$$$$
